- SUBJECT_OF_TEST: baculovirus-expressed JAK2 kinase (Homo sapiens, UniProt O60674)
- Sequence (O60674 whole entry): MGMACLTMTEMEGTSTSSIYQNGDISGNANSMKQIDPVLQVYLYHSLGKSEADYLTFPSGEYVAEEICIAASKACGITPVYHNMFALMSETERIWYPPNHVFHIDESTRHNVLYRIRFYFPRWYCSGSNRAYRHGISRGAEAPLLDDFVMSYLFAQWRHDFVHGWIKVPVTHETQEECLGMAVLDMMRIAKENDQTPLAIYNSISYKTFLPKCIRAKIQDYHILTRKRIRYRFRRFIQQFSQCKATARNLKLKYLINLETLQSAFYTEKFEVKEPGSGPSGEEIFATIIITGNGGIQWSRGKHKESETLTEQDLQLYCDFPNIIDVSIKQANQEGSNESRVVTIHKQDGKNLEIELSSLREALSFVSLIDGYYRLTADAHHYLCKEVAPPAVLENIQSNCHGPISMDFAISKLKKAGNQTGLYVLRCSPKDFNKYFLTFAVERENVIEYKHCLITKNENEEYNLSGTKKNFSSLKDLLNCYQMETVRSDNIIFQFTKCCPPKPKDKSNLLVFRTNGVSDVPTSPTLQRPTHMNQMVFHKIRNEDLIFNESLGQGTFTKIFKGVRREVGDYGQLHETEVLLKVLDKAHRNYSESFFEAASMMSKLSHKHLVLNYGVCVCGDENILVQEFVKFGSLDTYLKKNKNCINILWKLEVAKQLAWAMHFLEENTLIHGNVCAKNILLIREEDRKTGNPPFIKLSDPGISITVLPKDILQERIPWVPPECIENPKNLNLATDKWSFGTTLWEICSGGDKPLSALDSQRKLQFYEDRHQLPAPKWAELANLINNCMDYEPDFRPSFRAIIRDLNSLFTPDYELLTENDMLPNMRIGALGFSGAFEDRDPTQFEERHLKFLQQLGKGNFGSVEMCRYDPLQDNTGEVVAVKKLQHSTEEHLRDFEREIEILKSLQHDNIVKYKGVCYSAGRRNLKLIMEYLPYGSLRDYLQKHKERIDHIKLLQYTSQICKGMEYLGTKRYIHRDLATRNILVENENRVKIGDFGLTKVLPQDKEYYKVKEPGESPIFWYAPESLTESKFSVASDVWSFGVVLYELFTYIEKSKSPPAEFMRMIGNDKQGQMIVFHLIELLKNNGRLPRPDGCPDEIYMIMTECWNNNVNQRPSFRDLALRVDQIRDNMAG
- ASSAY_OVERVIEW: biochemical
- ASSAY_CONDITIONS: 0.2 μM ATP; read-out: JAK2 Potency
Where a name gives a salt, the structure may show the parent alone.
QUANTITY_MEASURED: IC50

*Q* Value lookup for IC50; key = COc1cc(N2CCN(C)CC2)ccc1-c1nc2c(N[C@H]3[C@@H](C(N)=O)[C@@H]4C=C[C@H]3C4)c(Cl)cnc2[nH]1 [Compound XXI, trifluoroacetic acid salt]
*A* < 100 nM

*Q* Value lookup for IC50; key = `C[C@H](O)CN1CCC(n2cc(-c3nc4c(N[C@H]5[C@@H](C(N)=O)[C@@H]6C=C[C@H]5C6)c(Cl)cnc4[nH]3)cn2)CC1`
*A* < 100 nM

*Q* Value lookup for IC50; key = `COc1cc(CN2CCOCC2)ccc1-c1nc2c(N[C@@H]3CCCC[C@H]3NS(C)(=O)=O)c(Cl)cnc2[nH]1`
*A* 1000 to 10000 nM

*Q* Value lookup for IC50; key = `NC(=O)[C@@H]1[C@H](Nc2c(Br)cnc3[nH]c(-c4ccc(N5CCOCC5)c(Cl)c4)nc23)[C@H]2C=C[C@@H]1C2`
*A* < 100 nM

====

- SUBJECT_OF_TEST: baculovirus-expressed ALK (Homo sapiens)
- Sequence (Q9UM73 19-1620): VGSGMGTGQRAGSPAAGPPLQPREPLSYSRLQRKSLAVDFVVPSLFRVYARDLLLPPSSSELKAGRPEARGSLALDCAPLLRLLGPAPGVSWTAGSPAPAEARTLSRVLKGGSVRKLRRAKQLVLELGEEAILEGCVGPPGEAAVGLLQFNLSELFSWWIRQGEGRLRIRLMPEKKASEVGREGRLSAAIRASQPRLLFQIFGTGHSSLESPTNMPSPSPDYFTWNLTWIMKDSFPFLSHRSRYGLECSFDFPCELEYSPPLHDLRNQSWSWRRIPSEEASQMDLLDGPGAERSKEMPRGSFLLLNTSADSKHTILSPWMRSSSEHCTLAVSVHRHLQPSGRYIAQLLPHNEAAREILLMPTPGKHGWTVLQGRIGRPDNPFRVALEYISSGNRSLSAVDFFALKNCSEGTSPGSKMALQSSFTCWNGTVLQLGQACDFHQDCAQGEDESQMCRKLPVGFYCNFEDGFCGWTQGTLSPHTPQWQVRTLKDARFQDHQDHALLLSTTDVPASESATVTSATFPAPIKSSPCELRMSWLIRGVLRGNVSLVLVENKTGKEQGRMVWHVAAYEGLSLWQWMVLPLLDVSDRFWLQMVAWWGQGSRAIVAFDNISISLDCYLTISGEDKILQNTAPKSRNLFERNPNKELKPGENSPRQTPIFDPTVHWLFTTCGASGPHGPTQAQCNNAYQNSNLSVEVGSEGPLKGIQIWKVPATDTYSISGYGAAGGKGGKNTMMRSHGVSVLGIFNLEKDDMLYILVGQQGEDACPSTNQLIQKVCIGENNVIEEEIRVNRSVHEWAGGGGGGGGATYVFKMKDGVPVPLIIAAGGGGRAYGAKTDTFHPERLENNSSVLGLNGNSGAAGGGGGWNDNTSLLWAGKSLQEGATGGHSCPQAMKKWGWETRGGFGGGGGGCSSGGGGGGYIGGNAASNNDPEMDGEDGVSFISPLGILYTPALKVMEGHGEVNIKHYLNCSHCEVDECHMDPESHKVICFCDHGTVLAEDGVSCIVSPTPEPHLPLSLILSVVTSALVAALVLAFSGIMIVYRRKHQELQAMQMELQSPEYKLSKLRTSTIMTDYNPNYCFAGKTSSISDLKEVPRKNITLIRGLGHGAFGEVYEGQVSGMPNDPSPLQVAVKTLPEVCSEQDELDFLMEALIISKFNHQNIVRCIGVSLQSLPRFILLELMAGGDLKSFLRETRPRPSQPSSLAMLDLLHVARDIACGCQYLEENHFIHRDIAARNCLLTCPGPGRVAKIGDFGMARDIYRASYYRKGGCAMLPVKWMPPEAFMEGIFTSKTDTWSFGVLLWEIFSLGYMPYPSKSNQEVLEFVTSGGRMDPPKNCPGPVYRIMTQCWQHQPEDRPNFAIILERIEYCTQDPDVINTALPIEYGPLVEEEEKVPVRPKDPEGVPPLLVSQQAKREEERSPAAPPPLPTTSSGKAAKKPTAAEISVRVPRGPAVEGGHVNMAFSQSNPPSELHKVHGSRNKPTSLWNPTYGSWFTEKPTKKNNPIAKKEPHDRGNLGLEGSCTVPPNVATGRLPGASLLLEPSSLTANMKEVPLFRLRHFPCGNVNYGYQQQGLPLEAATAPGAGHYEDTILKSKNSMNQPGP
- ASSAY_OVERVIEW: ALK kinase inhibition, TRF/ELISA
- Assay type: biochemical
- ASSAY_CONDITIONS: read-out: ALK Potency
- Procedure: Briefly, each 96-well plate was coated with 100 μL/well of 10 μg/mL substrate (GST-PLC-γ) in Tris-buffered saline (TBS). […] The reaction was initiated by adding enzyme (30 ng/mL ALK) and was allowed to proceed at 37° C. for 15 minutes. […] IC50 values were calculated by plotting percent inhibition versus log10 of the concentration of compound and fitting to the nonlinear regression sigmoidal dose-response (variable slope) equation in XLFit (IDBS, Guilford, UK).
pIC50: −log10 of the molar value.
QUANTITY_MEASURED: pIC50

Recorded pIC50, per entry:
{"COMPOUND": "COc1cc(C2CCN(C)CC2)ccc1-c1nc2c(N[C@H]3[C@@H](C(N)=O)[C@@H]4C=C[C@H]3C4)c(Cl)cnc2[nH]1 [Compound CXVII]", "pIC50": "> 7.00"}
{"COMPOUND": "NC(=O)[C@@H]1[C@H](Nc2c(Br)cnc3[nH]c(-c4ccc(N5CCOCC5)cc4Cl)nc23)[C@H]2C=C[C@@H]1C2 [Compound CXXXIV]", "pIC50": "> 7.00"}
{"COMPOUND": "CC(C)(C)OC(=O)N1CCC(c2nc3c(N[C@H]4[C@@H](C(N)=O)[C@@H]5C=C[C@H]4C5)c(Cl)cnc3[nH]2)CC1 [Compound CCXV]", "pIC50": "5.00 to 6.00"}
{"COMPOUND": "CN(C)C(=O)[C@@H]1[C@H](Nc2c(Cl)cnc3[nH]c(-c4sc(N5CCOCC5)nc4Cl)nc23)[C@H]2C=C[C@@H]1C2 [Compound CLXII]", "pIC50": "> 7.00"}
{"COMPOUND": "COc1cc(N(C)C)ccc1-c1nc2c(N[C@H]3[C@@H](C(N)=O)[C@@H]4C=C[C@H]3C4)ccnc2[nH]1 [Compound XCIII]", "pIC50": "< 5.00"}
{"COMPOUND": "COc1cc(C2CCN(C[C@@H](C)O)CC2)ccc1-c1nc2c(N[C@H]3[C@@H](C(N)=O)[C@@H]4C=C[C@H]3C4)c(Cl)cnc2[nH]1 [Compound CXVI]", "pIC50": "> 7.00"}

*Q* Enter reported pIC50 observed with baculovirus-expressed ALK (Homo sapiens) for CN1CCN(c2ccc(-c3nc4c(N[C@@H]5[C@H]6CC[C@H](C6)[C@@H]5C(N)=O)c(Br)cnc4[nH]3)cc2)CC1 [Compound CXIII]
*A* > 7.00

*Q* Enter reported pIC50 observed with baculovirus-expressed ALK (Homo sapiens) for COc1cc(OC(F)(F)F)ccc1-c1nc2c(N[C@H]3[C@@H](C(N)=O)[C@@H]4C=C[C@H]3C4)c(Cl)cnc2[nH]1 [Compound XVIII]
*A* > 7.00

*Q* Enter reported pIC50 observed with baculovirus-expressed ALK (Homo sapiens) for NC(=O)[C@@H]1[C@H](Nc2c(Br)cnc3[nH]c(-c4ccccc4F)nc23)[C@H]2C=C[C@@H]1C2 [Compound CXXXI]
*A* > 7.00

====

QUANTITY_MEASURED: melting point

Recorded melting point, per entry:
{"MOLECULE": "NC(=O)[C@@H]1[C@H](Nc2c(Cl)cnc3[nH]c(-c4ccc(C(=O)NC(CO)C(=O)O)cc4)nc23)[C@H]2C=C[C@@H]1C2 (stereo partly drawn) [Compound CCXXX]", "QUANTITY_MEASURED": "melting point", "ENDPOINT_RESULT": "186 °C"}
{"MOLECULE": "COc1cc(N2CCN(C)CC2)ccc1-c1nc2c(N[C@H]3[C@@H](C(N)=O)[C@@H]4C=C[C@H]3C4)ccnc2[nH]1 [Compound XCV]", "QUANTITY_MEASURED": "melting point", "ENDPOINT_RESULT": "185 to 195 °C"}

Now look at this entry.
*Q* Value lookup for melting point; key = COc1cccc(OC)c1-c1nc2c(N[C@H]3[C@@H](C(N)=O)[C@@H]4C=C[C@H]3C4)c(Br)cnc2[nH]1 [Compound CVI]
*A* 194 to 197 °C

====

- SUBJECT_OF_TEST: baculovirus-expressed ALK (Homo sapiens)
- ASSAY_OVERVIEW: ALK kinase inhibition, TRF/ELISA
- Assay type: biochemical
- ASSAY_CONDITIONS: read-out: ALK Potency
- Procedure: Briefly, each 96-well plate was coated with 100 μL/well of 10 μg/mL substrate (GST-PLC-γ) in Tris-buffered saline (TBS). […] The reaction was initiated by adding enzyme (30 ng/mL ALK) and was allowed to proceed at 37° C. for 15 minutes. […] IC50 values were calculated by plotting percent inhibition versus log10 of the concentration of compound and fitting to the nonlinear regression sigmoidal dose-response (variable slope) equation in XLFit (IDBS, Guilford, UK).
QUANTITY_MEASURED: IC50

Recorded IC50, per entry:
{"MOLECULE": "NC(=O)[C@@H]1[C@H](Nc2c(Cl)cnc3[nH]c(-c4ccc5c(c4)CCC4(CCNCC4)O5)nc23)[C@H]2C=C[C@@H]1C2", "IC50": "< 0.1 µM"}
{"MOLECULE": "NC(=O)[C@@H]1[C@H](Nc2c(Cl)cnc3[nH]c(C4CCCNC4)nc23)[C@H]2C=C[C@@H]1C2 (single isomer, unassigned)", "IC50": "> 10 µM"}
{"MOLECULE": "NC(=O)[C@@H]1[C@H](Nc2c(Cl)cnc3[nH]c(-c4ccc(Cl)cc4)nc23)[C@H]2C=C[C@@H]1C2", "IC50": "0.1 to 1 µM"}

Now look at this entry.
*Q* Value lookup for IC50; key = `N#Cc1ccc(-c2nc3c(N[C@H]4[C@@H](C(N)=O)[C@@H]5C=C[C@H]4C5)c(Br)cnc3[nH]2)cc1`
*A* 0.1 to 1 µM

====

Listed here are compounds together with their documented IC50.
- SUBJECT_OF_TEST: baculovirus-expressed JAK2 kinase (Homo sapiens)
- ASSAY_OVERVIEW: biochemical
- ASSAY_CONDITIONS: 0.2 μM ATP; read-out: JAK2 Potency

Recorded IC50, per entry:
{"COMPOUND": "CC(C)NC(=O)[C@@H]1[C@H](Nc2c(Cl)cnc3[nH]c(-c4sc(N5CCCC5)nc4Cl)nc23)[C@H]2C=C[C@@H]1C2", "IC50": "1000 to 10000 nM"}
{"COMPOUND": "COc1ccc(-c2nc3c(N[C@H]4[C@@H](C(N)=O)[C@@H]5C=C[C@H]4C5)c(Cl)cnc3[nH]2)c(C2CCN(C[C@@H](C)O)CC2)c1", "IC50": "100 to 1000 nM"}
{"COMPOUND": "COc1cc(N2CCN(C)CC2)ccc1-c1nc2c(N[C@@H]3[C@H](C(N)=O)[C@H]4C=C[C@@H]3C4)c(Cl)cnc2[nH]1", "IC50": "100 to 1000 nM"}

*Q* Value lookup for IC50; key = NC(=O)[C@@H]1[C@H](Nc2c(Cl)cnc3[nH]c(C4CCCNC4)nc23)[C@H]2C=C[C@@H]1C2 (single isomer, unassigned) [XIII]
*A* > 10000 nM

*Q* Value lookup for IC50; key = `N#Cc1ccc(-c2nc3c(N[C@H]4[C@@H](C(N)=O)[C@@H]5C=C[C@H]4C5)c(Br)cnc3[nH]2)cc1`
*A* < 100 nM

*Q* Value lookup for IC50; key = NC(=O)[C@@H]1[C@H](Nc2c(Cl)cnc3[nH]c(-c4cccc(C(=O)N5CCNC(C(=O)O)C5)c4)nc23)[C@H]2C=C[C@@H]1C2 (some centres unmarked)
*A* < 100 nM

*Q* Value lookup for IC50; key = `NC(=O)[C@@H]1[C@H](Nc2c(Cl)cnc3[nH]c(-c4ccc(F)cc4)nc23)[C@H]2C=C[C@@H]1C2`
*A* < 100 nM

*Q* Value lookup for IC50; key = `CN(C)CCNC(=O)c1cccc(-c2nc3c(N[C@H]4[C@@H](C(N)=O)[C@@H]5C=C[C@H]4C5)c(Cl)cnc3[nH]2)c1`
*A* < 100 nM
